// provenance: patent US9212130B2

- Target under test: human P2X3 receptor (Homo sapiens (Human), UniProt P56373)
- Sequence (P56373 whole entry): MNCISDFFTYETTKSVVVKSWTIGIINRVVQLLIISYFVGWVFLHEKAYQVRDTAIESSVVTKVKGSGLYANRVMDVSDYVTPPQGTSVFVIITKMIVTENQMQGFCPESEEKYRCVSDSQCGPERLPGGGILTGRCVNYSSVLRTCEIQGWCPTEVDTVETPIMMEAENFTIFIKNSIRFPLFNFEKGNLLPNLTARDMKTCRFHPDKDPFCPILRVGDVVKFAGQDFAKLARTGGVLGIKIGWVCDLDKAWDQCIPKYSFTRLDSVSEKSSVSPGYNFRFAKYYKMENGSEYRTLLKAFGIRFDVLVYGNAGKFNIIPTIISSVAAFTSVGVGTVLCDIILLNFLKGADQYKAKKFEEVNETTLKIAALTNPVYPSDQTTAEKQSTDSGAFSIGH
- Assay protocol: Evaluation of human P2X3 receptor inhibitory activity (ATP-induced Fluo-3 fluorescence, FDSS 3000)
- Recorded conditions: C6BU-1 cell transfected with human P2X3 receptor gene
Observation type: pIC50
In simple prose, pIC50 is minus the logarithm base ten of a concentration in moles per litre.

// worked examples, pIC50 included
                                   compound  observation_type  numeric_value
0  CC(C)Oc1ccc(Nc2ncc(NC(=O)C(C)C)c(=O)n2Cc2ccc(Cl)cc2)cc1F [I-247]             pIC50           7.72
1  CC(C)Oc1ccc(Nc2ncc(NC(=O)C(CO)CO)c(=O)n2Cc2ccc(Cl)cc2)cc1F [I-288]             pIC50           7.77

Alright, here's another compound for you.
Record lookup: for human P2X3 receptor (Homo sapiens (Human), UniProt P56373), what pIC50 belongs to CC(=O)OC(C)(C)C(=O)Nc1cnc(Nc2ccc3nc(C)sc3c2)n(Cc2ccc(Cl)cc2)c1=O [I-358] ?
7.80
